# measurement.description: Material cytotoxicity, CellTiter Glo
# Assay type: cell-based
# experimental.parameters: human, HEC-1A uterine/endometrial epithelial cells, maximum concentration tested 1000 µg/mL

compound: CCOC(=O)CC(O)(CC(=O)OCC)C(=O)OCC [TEC, triethylcitrate]
CC50 at 48 h: > 1000 µg/mL

compound: O=C(O)C(O)C(O)C(=O)O (stereo not drawn) [Tartaric acid, L(+)-Tartaric acid]
CC50 at 48 h: ~200 µg/mL

compound: CC(O)C(=O)O (stereo not drawn) [Lactic acid, L(+)-Lactic acid]
CC50 at 48 h: > 1000 µg/mL

compound: O=C(O)CC(O)(CC(=O)O)C(=O)O
CC50 at 48 h: > 1000 µg/mL
